method: qHTS for identification of novel therapeutic agents for treatment of microphthalmiaassociated transcription factor (MiT) renal cell carcinoma (RCC) (AID 1963991);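 further: curves scaled with 100% = DMSO viability and 0% = empty wells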
run-conditions: TFE3-RCC UOK109 viability, CellTiter-Glo, 48 h; measured here: UOK109 Z-AUC; stronger effect = lower value
Inconclusive results are not listed. Non-standard residues stand in square brackets, D forms with d. Residues, ends and D or L forms follow the SMILES beside them. Peptide text beside a SMILES is read from it. *: point of attachment. Sta = CC(C)C[C@H](N)[C@@H](O)CC(=O)O; Isovaleryl = CC(C)CC(=O)*
Threshold check on z-score: strictly below 0.9 is 1 (yes); on or above 0.9 is 0 (no).

Before answering, review these 5 worked examples.
[[record]]
compound = "C[C@@H](c1ncncc1F)[C@](O)(Cn1cncn1)c1ccc(F)cc1F"
assigned_class = "1 (yes)"

[[record]]
compound = "CS(=O)(=O)OCCCCOS(C)(=O)=O"
assigned_class = "0 (no)"

[[record]]
compound = "CC(C)CC(=O)N[C@H](C(=O)N[C@H](C(=O)N[C@@H](CC(C)C)[C@@H](O)CC(=O)N[C@@H](C)C(=O)N[C@@H](CC(C)C)[C@@H](O)CC(=O)O)C(C)C)C(C)C (Isovaleryl-VV[Sta]A[Sta]-OH)"
assigned_class = "1 (yes)"

[[record]]
compound = "COC(=O)[C@H](Cc1ccccc1)NC(=O)[C@@H](N)CC(=O)O (H-Asp-Phe-OMe)"
assigned_class = "1 (yes)"

[[record]]
compound = "C=C(c1ccc(C(=O)O)cc1)c1cc2c(cc1C)C(C)(C)CCC2(C)C"
assigned_class = "1 (yes)"


# evaluate next
Quick check: does Cc1ccc(C(=O)c2cc(O)c(O)c([N+](=O)[O-])c2)cc1 have z-score under 0.9?
1 (yes)

====

method: Validation screen for small molecules that induce genotoxicity in human embryonic kidney (HEK293T) cells expressing luciferase-tagged ELG1 (AID 493106)
run-conditions: luminescence; series mostly up to 46.1 µM
Records with an inconclusive call do not appear. The source made the active and inactive calls. The call rests on the fitted dose curve; in most records, active means well fitted activation curve with a large enough effect; inconclusive means small, poorly fitted or top-dose-only effect; inactive means no such curve, though single readings can be large or run the other way.
Respond only with the outcome that fits, drawn from true (active), false (inactive)

These solved cases illustrate the format of a correct answer.
[[record]]
compound = "CCN(CC)C(=S)SSC(=S)N(CC)CC"
assigned_class = "true"

[[record]]
compound = "Oc1ccc(-c2nc(-c3ccc(F)cc3)c(-c3ccncc3)[nH]2)cc1"
assigned_class = "false"

[[record]]
compound = "COc1ccc2cc([C@H](C)C(=O)O)ccc2c1"
assigned_class = "false"

[[record]]
compound = "Cc1cccc(C#Cc2ccccc2)n1"
assigned_class = "true"

[[record]]
compound = "CC(=O)O[C@H]1C(=O)[C@@]2(C)C([C@H](OC(=O)c3ccccc3)[C@]3(O)C[C@H](OC(=O)[C@H](O)[C@@H](NC(=O)c4ccccc4)c4ccccc4)C(C)=C1C3(C)C)[C@]1(OC(C)=O)CO[C@@H]1C[C@@H]2O (some centres not stated)"
assigned_class = "false"


Hello, I am checking results. What call was entered for O=c1cc(N2CCOCC2)oc2c(-c3ccccc3)cccc12 ?
false

Recorded test outcome, item CNC[C@H](O)c1ccc(O)c(O)c1
false

====

target-entity: Cytochrome P450 1A2 (Homo sapiens)
method: p450-cyp1a2 (AID 410); further: potency means the concentration at half of the fitted maximal effect
run-conditions: recombinant CYP1A2, luciferin-ME demethylation, luminescence; series mostly up to 25.6 µM
Inconclusive results are not listed. Active and inactive are the calls of the source. Calls follow the shape of the full dose curve.
reported-property: Potency

Example cases with answers are listed next.
[[record]]
compound = "Nc1nc(OCc2ccccc2)c2[nH]cnc2n1"
reported_property = "Potency"
val = "1 µM (active)"

[[record]]
compound = "CN1CCC(=C2c3ccccc3CCc3sccc32)CC1"
reported_property = "Potency"
val = "inactive"

[[record]]
compound = "C[C@H](Cc1ccc(O)c(O)c1)[C@@H](C)Cc1ccc(O)c(O)c1"
reported_property = "Potency"
val = "31.6 µM (active)"

[[record]]
compound = "Cc1nc2n(c(=O)c1CCN1CCC(c3noc4cc(F)ccc34)CC1)CCCC2"
reported_property = "Potency"
val = "inactive"

[[record]]
compound = "CCC1=C(C)CN(C(=O)NCCc2ccc(S(=O)(=O)NC(=O)NC3CCC(C)CC3)cc2)C1=O (stereo not drawn)"
reported_property = "Potency"
val = "inactive"


# returns recorded Potency (system: Cytochrome P450 1A2 (Homo sapiens)) for CCOc1cc(CC(=O)N[C@@H](CC(C)C)c2ccccc2N2CCCCC2)ccc1C(=O)O
inactive

Record c1ccc2[nH]c(-c3cscn3)nc2c1 : what is its Potency with Cytochrome P450 1A2 (Homo sapiens)?
0.126 µM (active)

Form: Entry = Cc1cc(=O)oc2cc(O)ccc12 | System = Cytochrome P450 1A2 (Homo sapiens) | Potency = ____
3.98 µM (active)

What is its Potency for Cytochrome P450 1A2 (Homo sapiens)? Entry: Cc1cc(C2CCCCC2)n(O)c(=O)c1
15.8 µM (active)

Item: CCN(CC)CCOc1ccc(Cc2ccccc2)cc1 Test system: Cytochrome P450 1A2 (Homo sapiens) Read-out: Potency Value: ?
12.6 µM (active)

Form entry - test system: Cytochrome P450 1A2 (Homo sapiens); read-out: Potency; compound: O=C(NCCO[N+](=O)[O-])c1cccnc1
inactive

Which Potency is reported with Cytochrome P450 1A2 (Homo sapiens) for this entry: Cc1ccc(C)c(OCCCC(C)(C)C(=O)O)c1 ?
12.6 µM (active)

Recorded Potency for COc1ccccc1N1CCN(CCN(C(=O)C2CCCCC2)c2ccccn2)CC1 with Cytochrome P450 1A2 (Homo sapiens), please?
inactive
